All values here come from patent US20260070987A1.

Please go through the items and note down their Kd.
Biological target: equine FcRn (large alpha subunit p51) / equine beta-2-microglobulin complex, biotinylated (equine) (UniProt P30441)
Test: SPR (Biacore), pH 6
Numeric answer only, unit nM assumed.

Quick check: Kd of equine IgG1 Y436A (antibody, part only; not given: variable domains, not shown: another chain or arm of the molecule) constant: ASTTAPKVFALAPGCGTTSDSTVALGCLVSGYFPEPVKVSWNSGSLTSGVHTFPSVLQSSGFYSLSSMVTVPASTWTSETYICNVVHAASNFKVDKRIEPIPDNHQKVCDMSKCPKCPAPELLGGPSVFIFPPNPKDTLMITRTPEVTCVVVDVSQENPDVKFNWYMDGVEVRTATTRPKEEQFNSTYRVVSVLRIQHQDWLSGKEFKCKVNNQALPQPIERTITKTKGRSQEPQVYVLAPHPDELSKSKVSVTCLVKDFYPPEINIEWQSNGQPELETKYSTTQAQQDSDGSYFLYSKLSVDRNRWQQGTTFTCGVMHEALHNHATQKNVSKNPGK ?
20.4

Quick check: Kd of equine IgG4 A426P (antibody, part only; not given: Variable domains, not shown: another chain or arm of the molecule) constant: ASTTAPKVFPLASHSAATSGSTVALGCLVSSYFPEPVTVSWNSGALTSGVHTFPSVLQSSGLYSLSSMVTVPASSLKSQTYICNVAHPASSTKVDKKIVIKECNGGCPAECLQVGPSVFIFPPKPKDVLMISRTPTVTCVVVDVGHDFPDVQFNWYVDGVETHTATTEPKQEQFNSTYRVVSVLPIQHKDWLSGKEFKCKVNNKALPAPVERTISKPTGQPREPQVYVLAPHRDELSKNKVSVTCLVKDFYPTDIDIEWKSNGQPEPETKYSTTPAQLDSDGSYFLYSKLTVETNRWQQGTTFTCPVMHEALHNHYTEKSVSKSPGK ?
9.8

Quick check: Kd of equine IgG4 T286W (antibody, part only; not given: Variable domains, not shown: another chain or arm of the molecule) constant: ASTTAPKVFPLASHSAATSGSTVALGCLVSSYFPEPVTVSWNSGALTSGVHTFPSVLQSSGLYSLSSMVTVPASSLKSQTYICNVAHPASSTKVDKKIVIKECNGGCPAECLQVGPSVFIFPPKPKDVLMISRTPTVTCVVVDVGHDFPDVQFNWYVDGVETHWATTEPKQEQFNSTYRVVSVLPIQHKDWLSGKEFKCKVNNKALPAPVERTISKPTGQPREPQVYVLAPHRDELSKNKVSVTCLVKDFYPTDIDIEWKSNGQPEPETKYSTTPAQLDSDGSYFLYSKLTVETNRWQQGTTFTCAVMHEALHNHYTEKSVSKSPGK ?
45

Quick check: Kd of equine IgG1 Q311F (antibody, part only; not given: variable domains, not shown: another chain or arm of the molecule) constant: ASTTAPKVFALAPGCGTTSDSTVALGCLVSGYFPEPVKVSWNSGSLTSGVHTFPSVLQSSGFYSLSSMVTVPASTWTSETYICNVVHAASNFKVDKRIEPIPDNHQKVCDMSKCPKCPAPELLGGPSVFIFPPNPKDTLMITRTPEVTCVVVDVSQENPDVKFNWYMDGVEVRTATTRPKEEQFNSTYRVVSVLRIQHFDWLSGKEFKCKVNNQALPQPIERTITKTKGRSQEPQVYVLAPHPDELSKSKVSVTCLVKDFYPPEINIEWQSNGQPELETKYSTTQAQQDSDGSYFLYSKLSVDRNRWQQGTTFTCGVMHEALHNHYTQKNVSKNPGK ?
20.3
